Species: Mus musculus
methodSummary: Minimum effective dose which on 5th day reduced the mean infection level to one-fiftieth of the control
Format: functional
measure: MED

Recorded MED, per entry:
smilesInput	MED
CCN(CC)C(=O)N1CCN(Cc2cc(Nc3ccnc4cc(Cl)ccc34)ccc2O)CC1	0.43 (mg of base) 20g-1
CN1CCN(C(=O)NCc2cc(Nc3ccnc4cc(Cl)ccc34)ccc2O)CC1	0.043 (mg of base) 20g-1
COc1ccc(Nc2ccnc3cc(Cl)ccc23)cc1CNC(=O)N1CCN(C)CC1	0.43 (mg of base) 20g-1
CCN(CC)Cc1cc(Nc2ccnc3cc(Cl)ccc23)ccc1O.Cl	0.077 (mg of base) 20g-1
CCN(Cc1cc(Nc2ccnc3cc(Cl)ccc23)ccc1O)C(=O)N1CCN(C)CC1	0.21 (mg of base) 20g-1
CCN(CC)C(=O)N1CCN(Cc2cc(Nc3ccnc4cc(Cl)ccc34)ccc2OC)CC1	0.43 (mg of base) 20g-1

Item under review: "CCN(Cc1cc(Nc2ccnc3cc(Cl)ccc23)ccc1OC)C(=O)N1CCN(C)CC1" . Reported MED?
0.43 (mg of base) 20g-1
